These measurements were taken from patent US20250136677A1.

Biological target: T1, wildtype feline IL-31 protein (Feline_IL31_wildtype) (feline)
T1 construct: Full length feline IL-31 with C-terminal His tag, secreted from ExpiCHO cells; also called fIL-31
T1 chain: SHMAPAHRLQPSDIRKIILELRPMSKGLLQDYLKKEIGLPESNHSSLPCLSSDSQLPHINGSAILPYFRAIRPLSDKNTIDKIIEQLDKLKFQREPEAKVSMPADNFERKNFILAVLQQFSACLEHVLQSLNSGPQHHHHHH
Assay: SPR (Biacore), IL-31 on chip, 1:1 fit
Procedure: The affinity with which candidate mAbs bind canine and feline IL-31 was determined using surface plasmon resonance (SPR) on a Biacore system (Biocore Life Sciences (GE Healthcare), Uppsala, Sweden). […] Chips were quenched with ethanolamine and the affinity with which all candidate mAbs bound to the immobilized IL-31 was evaluated. […]
Kindly return satisfied if reported kon is no lower than 40000 M⁻¹ s⁻¹; return not satisfied if it is lower.

// known answers, use as guide
BINDER	CLASS_LABEL
Feline 15H05 1.1 K42N_V43I (antibody, V domains shown) VH: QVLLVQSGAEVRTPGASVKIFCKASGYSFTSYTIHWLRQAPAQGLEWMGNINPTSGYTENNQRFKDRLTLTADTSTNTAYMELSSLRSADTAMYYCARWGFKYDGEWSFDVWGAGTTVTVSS VL: EIQMTQSPSSLSASPGDRVTITCRASQGISIWLSWYQQKPGNIPKLLIYKASNLHIGVPSRFSGSGSGTDFTLTISSLEPEDAATYYCLQSQTYPLTFGGGTKLEIK	satisfied
Feline 15H05 VH1 mouse VL (antibody, V domains shown, Heterochimeric antibody; also called felinized 15H05 VH1 with mouse 15H05 VL (heterochimera)) VH: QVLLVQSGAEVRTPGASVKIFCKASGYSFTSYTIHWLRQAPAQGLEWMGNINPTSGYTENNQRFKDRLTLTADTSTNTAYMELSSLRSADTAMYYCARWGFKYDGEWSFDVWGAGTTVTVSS VL: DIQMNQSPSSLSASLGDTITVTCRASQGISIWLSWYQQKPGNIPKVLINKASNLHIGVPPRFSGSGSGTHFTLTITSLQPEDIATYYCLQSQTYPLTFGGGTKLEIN	satisfied
Feline 15H05 1.1 FW1 (antibody, V domains shown) VH: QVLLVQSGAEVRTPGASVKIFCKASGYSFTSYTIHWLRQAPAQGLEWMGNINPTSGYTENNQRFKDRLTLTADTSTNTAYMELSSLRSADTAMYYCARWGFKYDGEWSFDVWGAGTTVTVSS VL: DIQMNQSPSSLSASLGDTITVTCRASQGISIWLSWYQQKPGKVPKLLIYKASNLHIGVPSRFSGSGSGTDFTLTISSLEPEDAATYYCLQSQTYPLTFGGGTKLEIK	not satisfied
Feline 15H05 1.3 (antibody, V domains shown, Feline heavy and kappa constant regions) VH: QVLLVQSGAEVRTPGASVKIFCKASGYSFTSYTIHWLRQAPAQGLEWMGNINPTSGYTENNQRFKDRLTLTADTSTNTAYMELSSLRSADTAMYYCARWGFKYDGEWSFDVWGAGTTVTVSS VL: EVVLTQSSAFLSRTLKEKATITCRASQGISIWLSWYQQKPNQAPKLLVKKASNLHIGAPSRFSGSGSGTDFTLTISSPEPEDAATYYCLQSQTYPLTFGGGTKLGDQ	not satisfied

Below: the item to evaluate.
Incoming: Say whether Feline 15H05 3.1 (antibody, V domains shown, Feline heavy and kappa constant regions) VH: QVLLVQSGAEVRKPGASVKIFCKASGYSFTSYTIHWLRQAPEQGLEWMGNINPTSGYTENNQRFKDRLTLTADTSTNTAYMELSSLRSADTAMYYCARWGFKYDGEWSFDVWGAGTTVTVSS VL: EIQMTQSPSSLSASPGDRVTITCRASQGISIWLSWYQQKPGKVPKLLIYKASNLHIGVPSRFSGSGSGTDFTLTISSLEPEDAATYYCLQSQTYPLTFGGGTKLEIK shows kon of 40000 M⁻¹ s⁻¹ or more.
Outgoing: satisfied
